# Experimental system: RORγt (Homo sapiens, UniProt P51449)
# Construct: purchased reporter-cell kit
# Sequence (P51449 269-508 limits assumed): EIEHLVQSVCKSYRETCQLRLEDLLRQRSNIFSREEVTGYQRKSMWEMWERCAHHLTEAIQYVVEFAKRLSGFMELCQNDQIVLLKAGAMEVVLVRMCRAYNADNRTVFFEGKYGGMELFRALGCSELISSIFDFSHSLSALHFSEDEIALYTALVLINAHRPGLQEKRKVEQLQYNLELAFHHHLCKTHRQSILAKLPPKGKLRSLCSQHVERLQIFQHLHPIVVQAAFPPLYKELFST
# Procedure text: Gal4 ligand binding assay (RORγt Gal fusion reporter assay)
# Type: cell-based
# Condition context: inverse agonists, luciferase reporter, 24h
Reported metric: IC50

IC50 recorded for this compound, "CS(=O)(=O)N1C2CCC1CN(Cc1ccc(-c3ccc(C(O)(C(F)(F)F)C(F)(F)F)cc3)c(Br)c1)C2" , is 50 to 250 nM

IC50 recorded for this compound, "OC(c1ccc(-c2ccc(CN3CC4CCC(C3)N4Cc3ccncc3)cc2F)cc1)(C(F)(F)F)C(F)(F)F" , is > 250 nM

IC50 recorded for this compound, "OC(c1ccc(-c2ccc(CN3CC4CCC(C3)N4Cc3ccncc3)cc2C(F)(F)F)cc1)(C(F)(F)F)C(F)(F)F" , is < 50 nM

IC50 recorded for this compound, "Cc1cc(CN2CC3CCC(C2)N3S(=O)(=O)Cc2ccccc2)ccc1-c1ccc(C(O)(C(F)(F)F)C(F)(F)F)cc1" , is > 250 nM

IC50 recorded for this compound, "CS(=O)(=O)N1C2CCC1CN(Cc1ccc(-c3ccc(C(O)(C(F)(F)F)C(F)(F)F)cc3)c(C(F)(F)F)c1)C2" , is 50 to 250 nM

IC50 recorded for this compound, "Cc1cc(CN2CC3CCC(C2)N3Cc2ccnc(O)c2)ccc1-c1ccc(C(O)(C(F)(F)F)C(F)(F)F)cc1" , is > 250 nM

IC50 recorded for this compound, "CCc1cc(CN2[C@@H]3COC[C@H]2CN(S(C)(=O)=O)C3)ccc1-c1ccc(C(O)(C(F)(F)F)C(F)(F)F)cc1" , is 50 to 250 nM

IC50 recorded for this compound, "CCc1cc(CN2C3CCC2CN(S(C)(=O)=O)C3)ccc1-c1ccc(C(O)(C(F)(F)F)C(F)(F)F)cc1Cl" , is < 50 nM

IC50 recorded for this compound, "CCc1cc(C(O)(C(F)(F)F)C(F)(F)F)ccc1-c1ccc(CN2CC3CCC(C2)N3S(C)(=O)=O)cc1C" , is < 50 nM

IC50 recorded for this compound, "CCOC(=O)N1C2CCC1CN(Cc1ccc(-c3ccc(C(O)(C(F)(F)F)C(F)(F)F)cc3)c(C)c1)C2" , is > 250 nM

IC50 recorded for this compound, Cc1cc(CN2CC3CC2CN3Cc2ccncc2)ccc1-c1ccc(C(O)(C(F)(F)F)C(F)(F)F)cc1 (centres unmarked) , is > 250 nM

IC50 recorded for this compound, "CCc1cc(CN2CC3CCC(C2)N3S(C)(=O)=O)cc(F)c1-c1ccc(C(O)(C(F)(F)F)C(F)(F)F)cc1Cl" , is < 50 nM

IC50 recorded for this compound, "CCN1C2CCC1CN(Cc1ccc(-c3ccc(C(O)(C(F)(F)F)C(F)(F)F)cc3)c(C)c1)C2" , is > 250 nM

IC50 recorded for this compound, CCc1cc(CN2CC3CCC2CN3S(C)(=O)=O)ccc1-c1ccc(C(O)(C(F)(F)F)C(F)(F)F)cc1 (centres unmarked) , is 50 to 250 nM

Sourced from patent US11230555B2
